The measurements presented in this section are drawn from patent US8188301B2.

Structures can show the parent of a compound that is named as a salt.
Provide the recorded melting point for the entries that follow.

Tell me melting point reported for CCCN1CCC(O)(c2cccc(F)c2F)C1 (centres unmarked) (as salt: fumaric acid salt) [Example 33]
97 to 100 °C

Tell me melting point reported for OC1(c2cccc(F)c2F)CCN(CC2CC2)C1 (centres unmarked) (as salt: oxalic acid salt) [Example 49]
172.8 °C

Tell me melting point reported for CCCN1CCC(O)(c2cc(F)cc(F)c2)C1 (centres unmarked) (as salt: oxalic acid salt) [Example 29]
117 to 118 °C

Tell me melting point reported for OC1(c2cccc(F)c2F)CCN(CCC(F)(F)F)C1 (single isomer, unassigned; (+)) (as salt: oxalic acid salt) [Example 63]
144 to 145 °C

Tell me melting point reported for CC(C)CN1CCC(O)(c2cc(F)cc(F)c2)C1 (centres unmarked) (as salt: oxalic acid salt) [Example 46]
162 to 163 °C

Tell me melting point reported for CCCN1CCC(O)(c2ccc(F)c(F)c2)C1 (centres unmarked) (as salt: fumaric acid salt) [Example 27]
127 to 129 °C

Tell me melting point reported for CCN1CCC(O)(c2cccc(F)c2F)C1 (single isomer, unassigned; (-)) (as salt: oxalic acid salt) [Example 32]
118 to 120 °C

Tell me melting point reported for FC1(c2cc(Cl)cc(Cl)c2)CCNC1 (centres unmarked) (as salt: hydrochloric acid salt)
201 to 202 °C

Tell me melting point reported for CN1CCC(O)(c2cc(F)cc(F)c2)C1 (centres unmarked) (as salt: oxalic acid salt) [Example 18]
159 to 162 °C

Tell me melting point reported for CC(C)CN1CCC(O)(c2cccc(F)c2F)C1 (centres unmarked) (as salt: oxalic acid salt) [Example 61]
168 to 169 °C

Tell me melting point reported for CCCN1CCC(O)(c2ccc(F)c(F)c2)C1 (centres unmarked) (as salt: fumaric acid salt) [Example 28]
128 to 129 °C

Tell me melting point reported for COCCN1CCC(O)(c2cc(F)cc(F)c2)C1 (single isomer, unassigned; (+)) (as salt: oxalic acid salt) [Example 54]
131 to 132 °C

Tell me melting point reported for C=CCN1CCC(O)(c2cc(F)cc(F)c2)C1 (centres unmarked) (as salt: oxalic acid salt) [Example 55]
104 to 105 °C

Tell me melting point reported for CCN1CCC(O)(c2cc(F)cc(Cl)c2)C1 (centres unmarked) (as salt: oxalic acid salt) [Example 67]
113 to 114 °C

Tell me melting point reported for CN1CCC(O)(c2cc(F)cc(Cl)c2)C1 (centres unmarked) (as salt: oxalic acid salt) [Example 66]
114 to 115 °C

Tell me melting point reported for Fc1cc(F)cc(C2(F)CCNC2)c1 (centres unmarked) (as salt: oxalic acid salt)
176 to 177 °C

Tell me melting point reported for CCN1CCC(O)(c2ccc(Cl)c(Cl)c2)C1 (centres unmarked) (as salt: fumaric acid salt)
184 to 185 °C

Tell me melting point reported for CCCN1CCC(O)(c2cc(F)cc(F)c2)C1 (centres unmarked) (as salt: fumaric acid salt) [Example 9]
136 to 137 °C

Tell me melting point reported for CCN1CCC(O)(c2ccc(F)c(F)c2)C1 (centres unmarked) (as salt: fumaric acid salt)
136 to 137 °C

Tell me melting point reported for CN1CCC(O)(c2cc(F)cc(F)c2)C1 (centres unmarked) (as salt: oxalic acid salt) [Example 47]
134 to 135 °C
